biological target: recombinant neuraminidase (rNA) from B/Malaysia/2506/04 (influenza B virus B/Malaysia/2506/04)
Kd vs 5 pM: less than gives y; not less than gives n.

BINDER | CLASS LABEL
recombinantly expressed 4F11 polymeric IgA (antibody, V domains shown) VH: DVKLVESGGDLVKPGGSLKLSCAASGFTFSAYSMSWVRQTPERRLEWVATINTGGSFTYYPDSVKGRFTISRDNAKNTLYLQMSSLKSEDTAMYFCTRVSDYGNSAYFPYWGQGTLVIVFA VL: QVVLTQSPALISASPGEKVTMTCSASSNVNYMSWYQQRPRSSPKPWIYLTSKLASGVPPRFSGSGSGTSYSLTISSMEAEDVATYYCQQWSSDPQTFGGGTKVEIK | y
recombinantly expressed 4F11 monomeric IgA (antibody, V domains shown) VH: DVKLVESGGDLVKPGGSLKLSCAASGFTFSAYSMSWVRQTPERRLEWVATINTGGSFTYYPDSVKGRFTISRDNAKNTLYLQMSSLKSEDTAMYFCTRVSDYGNSAYFPYWGQGTLVIVFA VL: QVVLTQSPALISASPGEKVTMTCSASSNVNYMSWYQQRPRSSPKPWIYLTSKLASGVPPRFSGSGSGTSYSLTISSMEAEDVATYYCQQWSSDPQTFGGGTKVEIK | y
recombinantly expressed 1F2 IgG2a (antibody, V domains shown) VH: QVHLQQSGPEVARPGASVKLSCKASGYTFTDYYLNWVKQRPRQGLEWIGQIHPGSTNTYYNEKFKGKATLTADKSSSTAYMQLSSLTFEDSAVYFCAISLGDGYYVYAMVCWGQGTAVTVSS VL: DIVMTQSQKFMSTSVGDRVSVTCKASQNVVTNVVWYQQKPGQSPKPLIYSASYRYSGVPDRFTGSGSGTDFTLTISNVQSEDLAEYCCQQYHSYPFTFGSGTKLEVK | n
recombinantly expressed 1F2 polymeric IgA (antibody, V domains shown) VH: QVHLQQSGPEVARPGASVKLSCKASGYTFTDYYLNWVKQRPRQGLEWIGQIHPGSTNTYYNEKFKGKATLTADKSSSTAYMQLSSLTFEDSAVYFCAISLGDGYYVYAMVCWGQGTAVTVSS VL: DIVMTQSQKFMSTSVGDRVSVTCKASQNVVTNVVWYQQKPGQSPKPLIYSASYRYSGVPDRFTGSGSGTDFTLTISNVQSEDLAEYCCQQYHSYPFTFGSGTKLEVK | n

src = patent US20220363736A1
